- Tested on: ATXN2-luc
- method: MSSR hit retest / multiconcentration testing: ATXN2-luc luciferase assay in H2 cells (1 and 10 μM)
- Format: cell-based, human
- condition notes: 1 uM compound; luciferase, average of H2 and S1 cells expressing ATXN2-luc; rescreen
Counter-ions that a name gives are not always drawn.
Field: H2&S1 ave luc 1uM. Provide a value for each of the molecules that follow.
Just the number, please, no unit after it.

stdin: Quick one: H2&S1 ave luc 1uM of CC(C)c1cc(/C=C(\C#N)C(=O)NCCCc2ccccc2)cc(C(C)C)c1O ?
stdout: 22

stdin: May I ask what H2&S1 ave luc 1uM has been recorded for C/C1=C2/[N-][C@H]([C@H](CC(N)=O)[C@@]2(C)CCC(=O)NC[C@@H](C)OP(=O)([O-])O[C@H]2[C@@H](O)[C@@H](n3cnc4cc(C)c(C)cc43)O[C@@H]2CO)[C@]2(C)N=C(/C(C)=C3N=C(/C=C4N=C1[C@@H](CCC(N)=O)C\4(C)C)[C@@H](CCC(N)=O)[C@]\3(C)CC(N)=O)[C@@H](CCC(N)=O)[C@]2(C)CC(N)=O.[Co] ?
stdout: 126

stdin: H2&S1 ave luc 1uM for C1CCC(N=C(NC23CC4CC(CC(C4)C2)C3)N2CCOCC2)CC1.Cl [U-37883A] ?
stdout: 94

stdin: May I ask what H2&S1 ave luc 1uM has been recorded for CC(N/C(=N\C#N)Nc1ccncc1)C(C)(C)C (stereo not drawn) ?
stdout: 117

stdin: Quick one: H2&S1 ave luc 1uM of O=c1[nH]c(=O)n([C@H]2C[C@H](O)[C@@H](CO)O2)cc1C(F)(F)F ?
stdout: 102

stdin: Need H2&S1 ave luc 1uM of CC(=O)O[C@H]1C[C@H](O[C@H]2[C@@H](O)C[C@H](O[C@H]3[C@@H](O)C[C@H](O[C@H]4CC[C@@]5(C)[C@H](CC[C@@H]6[C@@H]5C[C@@H](O)[C@]5(C)[C@@H](C7=CC(=O)OC7)CC[C@]65O)C4)O[C@@H]3C)O[C@@H]2C)O[C@H](C)[C@H]1O[C@@H]1O[C@H](CO)[C@@H](O)[C@H](O)[C@H]1O [LANATOSIDE C] , thanks.
stdout: 39

stdin: Fill in the blank: the reported H2&S1 ave luc 1uM of CN1CCN(CCCN2c3ccccc3Sc3ccc(C(F)(F)F)cc32)CC1 [TRIFLUOPERAZINE HYDROCHLORIDE] is ____.
stdout: 105

stdin: # H2&S1 ave luc 1uM lookup, item CC[C@H]1CN2CCc3cc(OC)c(OC)cc3[C@@H]2C[C@@H]1C[C@H]1NCCc2cc(O)c(OC)cc21.Cl.Cl.O.O.O.O.O.O.O [Cephaeline dihydrochloride heptahydrate]
stdout: 16

stdin: Requested field: H2&S1 ave luc 1uM. Item: CCN(CC)CCCCCCCCOC(=O)c1cc(OC)c(OC)c(OC)c1
stdout: 66
